B1: COX4I1 (parent)
chain: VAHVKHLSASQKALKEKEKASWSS

- Variants of: B1
- Protocol: protein stability index of a GFP-peptide fusion (GPS, HEK-293T) (PSI 1-6); higher = more stable;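 also: lentivirally expressed fusions sorted by FACS into six bins by GFP to DsRed ratio, PSI derived from sequencing read proportions per bin multiplied by bin number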
- Condition Notes: c terminus: a fixed tail appended
protein stability index overview
Observation Type: protein stability index

* VAHVKHLSASQKALKEPEKASWSS | 3.32
* VAHVKHLSASNKALKEKEKASWSS | 3.4
* VAHVKHLSPSQKALKEKEKASWSS | 3.19
* VACVKHLSASQKALKEKEKASWSS | 2.75
* VAHVKHLSASQKALKIKEKASWSS | 2.54
* VAHVKHLSASQKALKEKEKASWIS | 2.91
* VAHVKHLSASQKATKEKEKASWSS | 2.89
* VAHVKHLSASQRALKEKEKASWSS | 3.07
* VAHWKHLSASQKALKEKEKASWSS | 3.25
* VAHVKHLSASQKALKEKEKASWSR | 3.38
* VAHVKHLHASQKALKEKEKASWSS | 3.22
* VMHVKHLSASQKALKEKEKASWSS | 3.19
* YAHVKHLSASQKALKEKEKASWSS | 2.7
* VAHVKHLSASSKALKEKEKASWSS | 3.35
* VAHVKHLSASQKALKEKEKASWES | 3.26
* VAHVKHLSASQKTLKEKEKASWSS | 3.27
* VAHVVHLSASQKALKEKEKASWSS | 3.1
* VAHVKKLSASQKALKEKEKASWSS | 3.51
* VAHVKHLSASQKALKEQEKASWSS | 3.53
* VAHRKHLSASQKALKEKEKASWSS | 2.91
* VAHGKHLSASQKALKEKEKASWSS | 3.47
* VAHVKHLSASQKAKKEKEKASWSS | 3.65
* VAHVKHLSASYKALKEKEKASWSS | 2.08
* VAHVKHGSASQKALKEKEKASWSS | 3.99
* VAAVKHLSASQKALKEKEKASWSS | 3.44
* VAHVKHLSASQKALKEKEKASWSI | 3.56
* VAHVKHLSASQKALKSKEKASWSS | 2.64
* VAHVKHNSASQKALKEKEKASWSS | 3.85
* VAHVKGLSASQKALKEKEKASWSS | 3.45
* VAHNKHLSASQKALKEKEKASWSS | 3.64
* VAHVKHLSASQVALKEKEKASWSS | 3.77
* VAHVKHLSASQKSLKEKEKASWSS | 3.2
* VAHVKHLSASQKALKEKEKASVSS | 4.98
* VAHVKHLSASQKALKEKPKASWSS | 2.52
* VAHVKNLSASQKALKEKEKASWSS | 3.38
* VAHVKHLSASQKALKESEKASWSS | 3.23
* VAHVKHLSASQKALKEKSKASWSS | 3.02
* IAHVKHLSASQKALKEKEKASWSS | 3.35
* VAHAKHLSASQKALKEKEKASWSS | 4.1
* VRHVKHLSASQKALKEKEKASWSS | 2.77
* VCHVKHLSASQKALKEKEKASWSS | 3.44
* VAHVKHLSASQKALKEFEKASWSS | 3.31
* VAGVKHLSASQKALKEKEKASWSS | 3.22
* VAHVPHLSASQKALKEKEKASWSS | 3.64
* VAHVKHLSAPQKALKEKEKASWSS | 3.39
* VAHVKHLSQSQKALKEKEKASWSS | 3.01
* VAHVKHLSASQKALKENEKASWSS | 3.81
* VAHVKFLSASQKALKEKEKASWSS | 2.78
* VAHVKHLSASQKALKEKEKALWSS | 3.16
* VAHVKHLSASQKRLKEKEKASWSS | 2.69
* VQHVKHLSASQKALKEKEKASWSS | 3.46
* VAHVKHLSASQKALKGKEKASWSS | 2.38
* VAHVKHLSASQKALKEKTKASWSS | 2.87
* VAHVKHLSASQKALKEKEKAIWSS | 3.68
* VAHVKHLSASQKALKEKEKANWSS | 3.75
* VAHVKHLSASQKALKEKRKASWSS | 2.77
* VAHVKHLSASQKALKEKEKASISS | 4.38
* HAHVKHLSASQKALKEKEKASWSS | 3.25
* VAHVKHLSASQKALKEMEKASWSS | 3.01
* VAHVKHLSASQKAEKEKEKASWSS | 3.54
* VAHVKHLSASQKALKEKEKAPWSS | 3.73
* VAHVEHLSASQKALKEKEKASWSS | 3.69
* VAHVKHLKASQKALKEKEKASWSS | 3.46
* VAHVKHHSASQKALKEKEKASWSS | 3.72
* VAHVKHLSASHKALKEKEKASWSS | 3.26
* VAHVKHLSASQKLLKEKEKASWSS | 2.91
* VAHVKHLSASQKALKETEKASWSS | 3.21
* VAHVKHLSASQKALKEKEYASWSS | 2.28
* VAHVKHLSASQKALKEIEKASWSS | 2.83
* VAHVKHLSASQKVLKEKEKASWSS | 3.09
* VAHVKHLSASQKALKEKEKAKWSS | 3.47
* VAHVKHLSASQKALKEKEKASWKS | 3.74
* VAHVKHLSAVQKALKEKEKASWSS | 2.94
* VAHVKHLSASQKALKEKEKWSWSS | 2
* VAHVKHLSASQKALKEKEKASWSQ | 3.94
* VAHVKHLSGSQKALKEKEKASWSS | 2.38
* MAHVKHLSASQKALKEKEKASWSS | 3.05
* VAHVKHLSASQKALKEEEKASWSS | 3.9
* VAHVKHLSSSQKALKEKEKASWSS | 3.59
* QAHVKHLSASQKALKEKEKASWSS | 4.05
* VAHVKHLSASQKALPEKEKASWSS | 2.99
* VAHVKHLSASQKALKEKEKASSSS | 5.08
* GAHVKHLSASQKALKEKEKASWSS | 4.06
* VAHVKHLSVSQKALKEKEKASWSS | 3.09
* VAHVKILSASQKALKEKEKASWSS | 3.24
* VAHVKHLSASQKALMEKEKASWSS | 3.94
* VAHVKHLSASQKALKMKEKASWSS | 2.46
* VAHVKHLSASQKAQKEKEKASWSS | 3.48
* VAHVKHLSAAQKALKEKEKASWSS | 2.88
* VAHVQHLSASQKALKEKEKASWSS | 3.12
* VAHVKHLSASQKALKEKEFASWSS | 2.64
